B1: Hairpin Ribozyme (parent)
chain: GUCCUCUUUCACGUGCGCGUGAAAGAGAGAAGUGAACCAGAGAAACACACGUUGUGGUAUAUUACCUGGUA

# Variants of: B1
# procedure-summary: self-cleavage, relative activity (ratio to wild type); higher = more cleavage; co-transcriptional
experimental-endpoint: self-cleavage
Lab note: jot down the number only; don't add units.

Some variants with known self-cleavage results, for comparison:
A24C G34C
1.07
G56U U70G
0.0481

Continue with the variant presented below.
self-cleavage in this record for A24C C66U : 0.395
